Cited source for all entries: patent US20080274055A1

Biological target: T1, carcinoembryonic antigen (CEA) (human, UniProt P06731 35-685)
T1 sequence (looked up): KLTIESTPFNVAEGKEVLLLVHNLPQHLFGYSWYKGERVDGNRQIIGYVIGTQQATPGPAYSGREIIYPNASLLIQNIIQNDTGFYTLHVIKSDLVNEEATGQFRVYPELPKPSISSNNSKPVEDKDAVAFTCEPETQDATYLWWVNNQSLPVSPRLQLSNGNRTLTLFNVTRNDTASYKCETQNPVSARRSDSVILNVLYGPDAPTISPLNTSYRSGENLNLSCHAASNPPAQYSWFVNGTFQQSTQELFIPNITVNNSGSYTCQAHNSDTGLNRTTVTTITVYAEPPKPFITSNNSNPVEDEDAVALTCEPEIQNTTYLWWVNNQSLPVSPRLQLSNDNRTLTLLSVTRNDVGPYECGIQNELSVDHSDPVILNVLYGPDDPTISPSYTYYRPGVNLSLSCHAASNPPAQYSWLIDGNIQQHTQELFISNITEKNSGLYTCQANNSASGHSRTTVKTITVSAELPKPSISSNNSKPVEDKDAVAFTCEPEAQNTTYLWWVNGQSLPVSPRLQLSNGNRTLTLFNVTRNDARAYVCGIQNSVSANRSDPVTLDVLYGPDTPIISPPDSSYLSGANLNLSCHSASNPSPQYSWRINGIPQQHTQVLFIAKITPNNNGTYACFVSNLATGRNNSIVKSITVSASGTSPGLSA
Assay: competition RIA, unlabeled antibody against 125I-mCOL-1 on CEA; modified Scatchard
Attribute measured: Ka (M⁻¹)
The reply should contain only the number, in M⁻¹.

Known Ka results, listed for orientation:
Binder	Unit spec	Ka
HuCOL-1AbrCDR framework variant 4 (FRV4) (antibody, V domains shown, also called HuCOL-1FRV4) VH: EVQLVQSGAEVVKPGASVKVSCKASGFNIKDYYMHWVRQRPEQGLEWMGWIDPENGDTEYAQKFQGRATMTTDTSTSTVYMELSSLRSEDTAVYYCNTRGLSTMITTRWFFDVWGAGTLVTVSS VL: DIVLTQSPASLAVSLGERATINCKSSQSVSASGYSYMHWYQQKPGQPPKLLIYLASNLQSGVPARFSGSGSGTDFTLTISSVQAEDVATYYCQHSRELPTFGGGTKLEIK	M⁻¹	2.51e+08
FRV12 (antibody, name in Kabat numbering, V domains shown, Kabat positions (see notes of FRV2 and FRV8); also called HuCOL-1AbrCDR framework variant 12) VH: QVQLVQSGAEVKKPGASVKVSCKASGYNIKDYYMHWVRQRPEQGLEWMGWIDPENGDTEYAQKFQGRVTMTTDTSTSTVYMELSSLRSEDTAVYYCNTRGLSTMITTRWFFDVWGAGTLVTVSS VL: DIVMTQSPASLAVSLGERATINCKSSQSVSASGYSYMHWYQQKPGQPPKLLIYLASNLQSGVPDRFSGSGSGTDFTLTISSLQAEDVAVYYCQHSRELPTFGGGTKVEIK	M⁻¹	4.9e+07
FRV9 (antibody, name in Kabat numbering, V domains shown, Kabat positions (see notes of FRV2 and FRV8); also called HuCOL-1AbrCDR framework variant 9) VH: EVQLVQSGAEVVKPGASVKVSCKASGYNIKDYYMHWVRQRPEQGLEWMGWIDPENGDTEYAQKFQGRVTMTTDTSTSTVYMELSSLRSEDTAVYYCNTRGLSTMITTRWFFDVWGAGTLVTVSS VL: DIVMTQSPASLAVSLGERATINCKSSQSVSASGYSYMHWYQQKPGQPPKLLIYLASNLQSGVPDRFSGSGSGTDFTLTISSLQAEDVAVYYCQHSRELPTFGGGTKVEIK	M⁻¹	6.1e+07
FRV3 (antibody, name in Kabat numbering, V domains shown, Kabat positions (see note of FRV2); also called HuCOL-1AbrCDR framework variant 3) VH: EVQLVQSGAEVVKPGASVKMSCKASGFNIKDYYMHWVKQRPEQGLEWIGWIDPENGDTEYAQKFQGKATMTTDTSTSTAYLELSSLRSEDTAVYYCNTRGLSTMITTRWFFDVWGAGTLVTVSS VL: DIVMTQSPASLAVSLGERATINCKSSQSVSASGYSYMHWYQQKPGQPPKLLIYLASNLQSGVPDRFSGSGSGTDFTLTISSLQAEDVAVYYCQHSRELPTFGGGTKVEIK	M⁻¹	3.2e+07
FRV8 (antibody, name in Kabat numbering, V domains shown, Kabat positions; also called HuCOL-1AbrCDR framework variant 8) VH: EVQLVQSGAEVVKPGASVKVSCKASGYNIKDYYMHWVRQRPEQGLEWMGWIDPENGDTEYAQKFQGRVTMTTDTSTSTVYMELSSLRSEDTAVYYCNTRGLSTMITTRWFFDVWGAGTLVTVSS VL: DIVMTQSPASLAVSLGERATINCKSSQSVSASGYSYMHWYQQKPGQPPKLLIYLASNLQSGVPARFSGSGSGTDFTLTISSLQAEDVATYYCQHSRELPTFGGGTKVEIK	M⁻¹	7.7e+07

Input: Any idea what Ka was measured for HuCOL-1AbrCDR (antibody, V domains shown, also called FRV1; HuCOL-1 24,25,27L/61H) VH: EVQLVQSGAEVVKPGASVKMSCKASGFNIKDYYMHWVKQRPEQGLEWIGWIDPENGDTEYAQKFQGKATMTTDTSTSTAYLELSSLRSEDTAVYYCNTRGLSTMITTRWFFDVWGAGTLVTVSS VL: DIVLTQSPASLAVSLGERATINCKSSQSVSASGYSYMHWYQQKPGQPPKLLIYLASNLQSGVPARFSGSGSGTDFTLTISSVQAEDVATYYCQHSRELPTFGGGTKLEIK ?
Output: 2.3e+08

Input: # lookup: Ka of HuCOL-1AbrCDR framework variant 10 (FRV10) (antibody, V domains shown, also called HuCOL-1FRV10) VH: QVQLVQSGAEVKKPGASVKVSCKASGYNIKDYYMHWVRQRPEQGLEWMGWIDPENGDTEYAQKFQGRVTMTTDTSTSTVYMELSSLRSEDTAVYYCNTRGLSTMITTRWFFDVWGAGTLVTVSS VL: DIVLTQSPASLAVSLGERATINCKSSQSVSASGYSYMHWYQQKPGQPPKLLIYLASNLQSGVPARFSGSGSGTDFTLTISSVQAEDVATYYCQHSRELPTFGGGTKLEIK
Output: 3.04e+08

Input: Would you kindly share the measured Ka for murine COL-1 monoclonal antibody (antibody, V domains shown, Whole murine antibody; also called mCOL-1; muCOL-1) VH: EVQLQQSGAELVRSGASVKMSCTASGFNIKDYYMHWVKQRPEQGLEWIGWIDPENGDTEYAPKFQGKATMTTDTSSNTAYLQLSSLTSEDTAVYYCNTRGLSTMITTRWFFDVWGAGTTVAVSS VL: DIVLTQSPASLTVSLGLRATISCRASKSVSASGYSYMHWYQQRPGQPPKLLIYLASNLQSGVPARFSGSGSGTDFTLNIHPVEEEDAATYYCQHSRELPTFGGGTKLEIK ?
Output: 2.74e+08

Input: Query: Ka; subject: FRV11 (antibody, name in Kabat numbering, V domains shown, Kabat positions (see notes of FRV2 and FRV8); also called HuCOL-1AbrCDR framework variant 11) VH: QVQLVQSGAEVKKPGASVKVSCKASGYNIKDYYMHWVRQRPEQGLEWMGWIDPENGDTEYAQKFQGRVTMTTDTSTSTVYMELSSLRSEDTAVYYCNTRGLSTMITTRWFFDVWGAGTLVTVSS VL: DIVMTQSPASLAVSLGERATINCKSSQSVSASGYSYMHWYQQKPGQPPKLLIYLASNLQSGVPARFSGSGSGTDFTLTISSLQAEDVATYYCQHSRELPTFGGGTKVEIK
Output: 6.1e+07

Input: Suppose we examine the binder FRV2 (antibody, name in Kabat numbering, V domains shown, also called HuCOL-1AbrCDR framework variant 2) VH: EVQLVQSGAEVVKPGASVKMSCKASGFNIKDYYMHWVKQRPEQGLEWIGWIDPENGDTEYAQKFQGKATMTTDTSTSTAYLELSSLRSEDTAVYYCNTRGLSTMITTRWFFDVWGAGTLVTVSS VL: DIVMTQSPASLAVSLGERATINCKSSQSVSASGYSYMHWYQQKPGQPPKLLIYLASNLQSGVPARFSGSGSGTDFTLTISSLQAEDVATYYCQHSRELPTFGGGTKVEIK ; what Ka value has been reported?
Output: 2.9e+07

Input: Any idea what its Ka is? The binder is HuCOL-1AbrCDR framework variant 7 (FRV7) (antibody, V domains shown, also called HuCOL-1FRV7; FR7) VH: EVQLVQSGAEVVKPGASVKVSCKASGYNIKDYYMHWVRQRPEQGLEWMGWIDPENGDTEYAQKFQGRVTMTTDTSTSTVYMELSSLRSEDTAVYYCNTRGLSTMITTRWFFDVWGAGTLVTVSS VL: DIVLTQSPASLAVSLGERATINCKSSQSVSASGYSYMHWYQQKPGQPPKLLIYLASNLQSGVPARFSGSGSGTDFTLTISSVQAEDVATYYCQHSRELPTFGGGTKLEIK
Output: 3.07e+08
